For each of the molecules below, state its log10 Ki.
Use the decimal logarithm of Ki (nM).

Item: CC1(C)CCNc2c(CCN3CCN(c4nsc5ccccc45)CC3)cccc21 Test system: 5-hydroxytryptamine receptor 2A (Homo sapiens) Read-out: log10 Ki Value: ?
-0.74

Item: CC(=O)N1CCC(c2ccccc2)c2cccc(CCN3CCN(c4nsc5ccccc45)CC3)c21 (centres undefined) Test system: 5-hydroxytryptamine receptor 2A (Homo sapiens) Read-out: log10 Ki Value: ?
0.33

Item: CC(=O)N1CCC(C)c2c(C)ccc(CCN3CCN(c4noc5ccccc45)CC3)c21 (centres undefined) Test system: 5-hydroxytryptamine receptor 2A (Homo sapiens) Read-out: log10 Ki Value: ?
-0.49

Item: CC(=O)N1CCC(C)c2cc(F)cc(CCN3CCN(c4nsc5ccccc45)CC3)c21 (centres undefined) Test system: 5-hydroxytryptamine receptor 2A (Homo sapiens) Read-out: log10 Ki Value: ?
-0.36

Item: CC1(C)CCNc2c(CCN3CCN(c4nsc5ccccc45)CC3)cc(F)cc21 Test system: 5-hydroxytryptamine receptor 2A (Homo sapiens) Read-out: log10 Ki Value: ?
-0.55

Item: CC1CC(=O)N(C)c2c(CCN3CCN(c4nsc5ccccc45)CC3)cccc21 (centres undefined) Test system: 5-hydroxytryptamine receptor 2A (Homo sapiens) Read-out: log10 Ki Value: ?
-0.77

Item: CC1CC(=O)Nc2c(CCN3CCN(c4noc5ccccc45)CC3)cccc21 (centres undefined) Test system: 5-hydroxytryptamine receptor 2A (Homo sapiens) Read-out: log10 Ki Value: ?
2.28

Item: CC1CC(=O)Nc2c(CCN3CCN(c4nsc5ccccc45)CC3)cc(Cl)cc21 (centres undefined) Test system: 5-hydroxytryptamine receptor 2A (Homo sapiens) Read-out: log10 Ki Value: ?
-1.30

Item: CC1CC(=O)Nc2c(CCN3CCN(c4n[s+]([O-])c5ccccc45)CC3)cc(F)cc21 (centres undefined) Test system: 5-hydroxytryptamine receptor 2A (Homo sapiens) Read-out: log10 Ki Value: ?
0.35

Item: CC1CC(=O)Nc2c(CCN3CCN(c4nsc5ccccc45)CC3)cccc21 (centres undefined) Test system: 5-hydroxytryptamine receptor 2A (Homo sapiens) Read-out: log10 Ki Value: ?
-0.66

Item: CC(=O)N1CCC(C)c2cccc(CCN3CCN(c4nsc5ccccc45)CC3)c21 (centres undefined) Test system: 5-hydroxytryptamine receptor 2A (Homo sapiens) Read-out: log10 Ki Value: ?
-0.52

Item: CC1Cc2cccc(CCN3CCN(c4nsc5ccccc45)CC3)c2NC1=O (centres undefined) Test system: 5-hydroxytryptamine receptor 2A (Homo sapiens) Read-out: log10 Ki Value: ?
0.03

Item: Cc1ccc(CCN2CCN(c3nsc4ccccc34)CC2)c2c1C(C)CC(=O)N2 (centres undefined) Test system: 5-hydroxytryptamine receptor 2A (Homo sapiens) Read-out: log10 Ki Value: ?
-0.89

Item: CC1CCN(C(=O)C2CCCCC2)c2c(CCN3CCN(c4nsc5ccccc45)CC3)cccc21 (centres undefined) Test system: 5-hydroxytryptamine receptor 2A (Homo sapiens) Read-out: log10 Ki Value: ?
-0.23

* * *

For each of the compounds below, state its Ki.
target: UniProt P14416; experiment: Binding affinity against Dopamine receptor D2 expressed in CHO cells
Sequence (P14416 whole entry): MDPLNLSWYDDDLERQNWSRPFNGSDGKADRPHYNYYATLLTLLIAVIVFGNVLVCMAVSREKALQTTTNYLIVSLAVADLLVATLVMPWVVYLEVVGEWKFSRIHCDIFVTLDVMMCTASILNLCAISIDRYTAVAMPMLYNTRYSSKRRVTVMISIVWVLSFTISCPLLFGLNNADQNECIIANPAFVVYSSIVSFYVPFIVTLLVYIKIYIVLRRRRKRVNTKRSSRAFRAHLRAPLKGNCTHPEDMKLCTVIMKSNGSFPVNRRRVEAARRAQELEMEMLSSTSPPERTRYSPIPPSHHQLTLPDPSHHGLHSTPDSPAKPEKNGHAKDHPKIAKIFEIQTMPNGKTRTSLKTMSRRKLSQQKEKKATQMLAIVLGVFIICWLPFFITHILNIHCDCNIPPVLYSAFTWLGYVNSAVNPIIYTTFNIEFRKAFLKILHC
Give just the numeric value; nM need not be written.

Item: CC(=O)N1CCC(C)c2cccc(CCN3CCN(c4nsc5ccccc45)CC3)c21 (centres undefined) Test system: UniProt P14416 Read-out: Ki Value: ?
17

Item: CC1(C)CCNc2c(CCN3CCN(c4nsc5ccccc45)CC3)cc(F)cc21 Test system: UniProt P14416 Read-out: Ki Value: ?
55
